- Test: self-splicing fitness, log relative to wild type (ln ratio); higher = more splicing; Tetrahymena group I intron in knt gene, E. coli kanamycin selection, DiMSum; sequences stand for … in CUCUCU…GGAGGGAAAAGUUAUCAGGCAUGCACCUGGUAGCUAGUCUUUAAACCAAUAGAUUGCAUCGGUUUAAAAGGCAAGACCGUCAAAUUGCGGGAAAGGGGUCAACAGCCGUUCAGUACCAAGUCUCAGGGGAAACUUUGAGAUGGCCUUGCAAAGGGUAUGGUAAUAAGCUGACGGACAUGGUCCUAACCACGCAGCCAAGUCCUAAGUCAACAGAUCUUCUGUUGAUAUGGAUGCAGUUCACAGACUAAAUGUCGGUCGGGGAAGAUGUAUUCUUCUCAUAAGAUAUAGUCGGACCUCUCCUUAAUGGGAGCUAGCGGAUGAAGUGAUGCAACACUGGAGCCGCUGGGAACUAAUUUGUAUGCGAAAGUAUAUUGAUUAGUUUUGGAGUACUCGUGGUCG;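 also: selection with 25 µg/mL kanamycin versus none on LB agar overnight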
- Condition parameters: 30 °C
Observation type: self-splicing fitness (ln)
Field format: numeric only.

# count of solved cases: 3
{"columns": ["Biopolymer sequence", "self-splicing fitness (ln)"],
 "data": [
  ["GCCAAGCAAUAUUACGUGUU", -0.889],
  ["UCAUAGCAAUAUUACGUCCG", 0.46],
  ["CGUUAGCAAUAUUACGAUUG", -0.332]
]}

Notebook: CGAUAGCAAUAUUACGAUAU , self-splicing fitness (ln) read as -3.53

* * *

- Test: self-splicing fitness, log relative to wild type (ln ratio); higher = more splicing; Tetrahymena group I intron in knt gene, E. coli kanamycin selection, DiMSum; sequences stand for … in CUCUCU…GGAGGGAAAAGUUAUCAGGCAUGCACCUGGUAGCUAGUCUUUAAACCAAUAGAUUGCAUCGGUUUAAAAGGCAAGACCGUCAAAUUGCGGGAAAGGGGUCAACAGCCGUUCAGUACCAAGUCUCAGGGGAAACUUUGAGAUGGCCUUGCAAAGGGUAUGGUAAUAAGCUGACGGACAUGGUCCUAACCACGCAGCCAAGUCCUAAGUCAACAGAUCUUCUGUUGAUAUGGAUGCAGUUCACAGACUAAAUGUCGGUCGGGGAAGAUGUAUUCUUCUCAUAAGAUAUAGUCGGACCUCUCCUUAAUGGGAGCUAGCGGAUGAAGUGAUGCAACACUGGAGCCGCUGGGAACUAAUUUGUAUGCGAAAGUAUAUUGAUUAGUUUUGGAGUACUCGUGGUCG
- Condition parameters: 37 °C
Observation type: self-splicing fitness (ln)
Field format: numeric only.

{"columns": ["Biopolymer sequence", "Value observed"],
 "data": [
  ["UUGUAGCAAUAUUACGCGUA", -0.742],
  ["CUUCAGCAAUAUUACGGCGG", -1.25],
  ["AUAGAGCAAUAUUACGGCGG", -1.32],
  ["UCUGAGCAAUAUUACGGUCU", -2.96],
  ["CACGAGCAAUAUUACGGACG", -0.15]
]}

Notebook: CGGGAGCAAUAUUACGCGUC , self-splicing fitness (ln) read as -2.8

Notebook: GAUUAGCAAUAUUACGAUAA , self-splicing fitness (ln) read as 0.0487

* * *

- Test: self-splicing fitness, log relative to wild type (ln ratio); higher = more splicing; Tetrahymena group I intron in knt gene, E. coli kanamycin selection, DiMSum; sequences stand for … in CUCUCU…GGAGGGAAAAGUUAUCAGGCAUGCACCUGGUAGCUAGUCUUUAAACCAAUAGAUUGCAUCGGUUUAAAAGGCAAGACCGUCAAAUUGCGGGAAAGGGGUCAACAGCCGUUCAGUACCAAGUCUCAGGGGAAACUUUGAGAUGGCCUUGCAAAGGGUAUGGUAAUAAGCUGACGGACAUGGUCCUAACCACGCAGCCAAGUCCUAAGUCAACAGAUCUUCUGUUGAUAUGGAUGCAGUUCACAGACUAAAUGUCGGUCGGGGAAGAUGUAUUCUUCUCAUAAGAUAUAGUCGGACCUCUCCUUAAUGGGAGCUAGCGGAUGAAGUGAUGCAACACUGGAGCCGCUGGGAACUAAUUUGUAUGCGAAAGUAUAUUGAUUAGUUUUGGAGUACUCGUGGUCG
- Condition parameters: 30 °C
self-splicing fitness (ln) values by entry
Field format: numeric only.

# count of solved cases: 5
{"columns": ["Biopolymer sequence", "Value observed"],
 "data": [
  ["UCGUAGCAAUAUUACGUGGU", -3.45],
  ["GGGUAGCAAUAUUACGGAAA", -1.82],
  ["AAGUAGCAAUAUUACGGCGC", -0.0482],
  ["CAUCAGCAAUAUUACGCGAG", 0.128],
  ["UAGCAGCAAUAUUACGCGUG", -1.5]
]}

Notebook: GCGAAGCAAUAUUACGUGCG , self-splicing fitness (ln) read as -2.31

Notebook: CGCAAGCAAUAUUACGCACA , self-splicing fitness (ln) read as -0.694

Notebook: UCAAAGCAAUAUUACGUACG , self-splicing fitness (ln) read as -0.29

* * *

- Test: self-splicing fitness, log relative to wild type (ln ratio); higher = more splicing; Tetrahymena group I intron in knt gene, E. coli kanamycin selection, DiMSum; sequences stand for … in CUCUCU…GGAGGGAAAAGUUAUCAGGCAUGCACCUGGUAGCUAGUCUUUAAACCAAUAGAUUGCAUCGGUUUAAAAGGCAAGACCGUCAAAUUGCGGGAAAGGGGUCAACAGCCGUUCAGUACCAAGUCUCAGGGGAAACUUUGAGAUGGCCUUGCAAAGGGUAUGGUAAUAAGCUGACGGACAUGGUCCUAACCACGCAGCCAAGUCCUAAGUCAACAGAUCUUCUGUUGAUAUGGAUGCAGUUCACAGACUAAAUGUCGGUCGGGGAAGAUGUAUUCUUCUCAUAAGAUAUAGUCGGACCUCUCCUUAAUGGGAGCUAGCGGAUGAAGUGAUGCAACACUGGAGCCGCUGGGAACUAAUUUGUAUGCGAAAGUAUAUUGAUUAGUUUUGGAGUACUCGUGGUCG
- Condition parameters: 37 °C
self-splicing fitness (ln) values by entry

{"columns": ["Biopolymer sequence", "self-splicing fitness (ln)"],
 "data": [
  ["CGUUAGCAAUAUUACGUCGG", 0.0154],
  ["CCCCAGCAAUAUUACGAUUG", -2.72],
  ["UACCAGCAAUAUUACGUGUU", -1.38],
  ["AGCUAGCAAUAUUACGUAUA", -2.12],
  ["CAAGAGCAAUAUUACGUAUU", -1.83]
]}

Notebook: UGUUAGCAAUAUUACGCGGA , self-splicing fitness (ln) read as -0.401

Notebook: CCUGAGCAAUAUUACGAGGU , self-splicing fitness (ln) read as -1.99

Notebook: AGUAAGCAAUAUUACGUAGG , self-splicing fitness (ln) read as -3.09

Notebook: UGAGAGCAAUAUUACGCCUU , self-splicing fitness (ln) read as -3.73

Notebook: UAAAAGCAAUAUUACGAUUU , self-splicing fitness (ln) read as -0.59

Notebook: ACACAGCAAUAUUACGGAUU , self-splicing fitness (ln) read as -1.45

Notebook: CUAAAGCAAUAUUACGUCGC , self-splicing fitness (ln) read as -2.63

Notebook: GAAGAGCAAUAUUACGAGGC , self-splicing fitness (ln) read as -1.8

* * *

- Test: self-splicing fitness, log relative to wild type (ln ratio); higher = more splicing; Tetrahymena group I intron in knt gene, E. coli kanamycin selection, DiMSum; sequences stand for … in CUCUCU…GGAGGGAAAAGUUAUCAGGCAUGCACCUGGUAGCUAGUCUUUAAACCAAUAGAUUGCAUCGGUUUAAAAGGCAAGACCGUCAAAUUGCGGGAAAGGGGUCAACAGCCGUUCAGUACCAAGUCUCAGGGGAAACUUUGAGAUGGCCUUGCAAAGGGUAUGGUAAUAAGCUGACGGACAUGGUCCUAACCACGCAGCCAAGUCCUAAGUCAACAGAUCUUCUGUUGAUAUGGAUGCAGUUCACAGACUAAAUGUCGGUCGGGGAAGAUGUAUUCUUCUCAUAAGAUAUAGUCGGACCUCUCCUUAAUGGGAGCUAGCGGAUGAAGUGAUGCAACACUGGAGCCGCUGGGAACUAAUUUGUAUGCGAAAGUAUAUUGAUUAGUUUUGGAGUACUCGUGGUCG
- Condition parameters: 37 °C
Observation type: self-splicing fitness (ln)
Field format: numeric only.

# count of solved cases: 5
{"columns": ["Biopolymer sequence", "Value observed"],
 "data": [
  ["GAGUAGCAAUAUUACGGAUA", -2.41],
  ["GUGUAGCAAUAUUACGAAUA", -1.39],
  ["AUAGAGCAAUAUUACGAGCU", -1.15],
  ["CUGCAGCAAUAUUACGUUGG", -3.09],
  ["CUUGAGCAAUAUUACGUAAA", -0.936]
]}

# ---- query sequence ----
Notebook: CGACAGCAAUAUUACGCGGC , self-splicing fitness (ln) read as -2.96
